Tested on: 5′-ATACGT-3′ sequence within the HRE of the VEGF promoter
Assay: Quantitative DNase I footprint titration on pGL2-VEGF-Luc PCR product, VEGF HRE
Format: binding
Conditions: mean of three DNase I footprint titration experiments, standard deviations in parentheses; 197 bp PCR product of pGL2-VEGF-Luc
MEASURED ENDPOINT: Binding affinities (M-1), 5′-TACGTG-3′ (equilibrium association constants)

Recorded Binding affinities (M-1), 5′-TACGTG-3′ (equilibrium association constants), per entry:
{"MOLECULE": "CN(CCCNC(=O)c1cccc(C(=O)O)c1)CCCNC(=O)c1cc(NC(=O)c2cc(NC(=O)c3nc(NC(=O)c4cc(NC(=O)[C@H](N)CCNC(=O)c5nc(NC(=O)c6cc(NC(=O)c7cc(NC(=O)c8sccc8Cl)cn7C)cn6C)cn5C)cn4C)cn3C)cn2C)cn1C [Polyamide 11]", "EXPERIMENTAL RESULT": "2.6 (±0.4) × 10^10 M-1"}
{"MOLECULE": "CN(CCCNC(=O)c1cccc(O)c1)CCCNC(=O)c1cc(NC(=O)c2cc(NC(=O)c3nc(NC(=O)c4cc(NC(=O)[C@H](N)CCNC(=O)c5nc(NC(=O)c6cc(NC(=O)c7cc(NC(=O)c8sccc8Cl)cn7C)cn6C)cn5C)cn4C)cn3C)cn2C)cn1C [Polyamide 10]", "EXPERIMENTAL RESULT": "2.1 (±0.4) × 10^10 M-1"}
{"MOLECULE": "Cn1cc(NC(=O)c2cc(NC(=O)c3nc(NC(=O)c4cc(NC(=O)[C@H](N)CCNC(=O)c5nc(NC(=O)c6cc(NC(=O)c7cc(NC(=O)c8sccc8Cl)cn7C)cn6C)cn5C)cn4C)cn3C)cn2C)cc1C(=O)NCCOCCOCCNC(=O)CCCC[C@@H]1SC[C@@H]2NC(=O)N[C@@H]21 [Polyamide 14]", "EXPERIMENTAL RESULT": "4.8 (±1.9) × 10^9 M-1"}

Let me know recorded Binding affinities (M-1), 5′-TACGTG-3′ (equilibrium association constants) for CN(CCCNC(=O)CCCC[C@@H]1SC[C@@H]2NC(=O)N[C@@H]21)CCCNC(=O)c1cc(NC(=O)c2cc(NC(=O)c3nc(NC(=O)c4cc(NC(=O)[C@H](N)CCNC(=O)c5nc(NC(=O)c6cc(NC(=O)c7cc(NC(=O)c8sccc8Cl)cn7C)cn6C)cn5C)cn4C)cn3C)cn2C)cn1C [Polyamide 13] , thanks.
7.2 (±1.1) × 10^9 M-1

* * *

Test system: 5′-ATACGT-3′ sequence within the HRE of the VEGF promoter
Test: Quantitative DNase I footprint titration on pGL2-VEGF-Luc PCR product, VEGF HRE
Assay type: binding
Conditions: mean of three DNase I footprint titration experiments, standard deviations in parentheses; 197 bp PCR product of pGL2-VEGF-Luc
MEASURED ENDPOINT: Binding affinities (M-1), 5′-TACGTG-3′ (equilibrium association constants)

{"COMPOUND": "CN(CCCN)CCCNC(=O)c1cc(NC(=O)c2cc(NC(=O)c3nc(NC(=O)c4cc(NC(=O)[C@H](N)CCNC(=O)c5nc(NC(=O)c6cc(NC(=O)c7cc(NC(=O)c8sccc8Cl)cn7C)cn6C)cn5C)cn4C)cn3C)cn2C)cn1C [Polyamide 4]", "EXPERIMENTAL RESULT": "7.7 (±0.9)×10^10 M-1"}

Return Binding affinities (M-1), 5′-TACGTG-3′ (equilibrium association constants) for the following compound: Cn1cc(NC(=O)c2cc(NC(=O)c3nc(NC(=O)c4cc(NC(=O)[C@H](N)CCNC(=O)c5nc(NC(=O)c6cc(NC(=O)c7cc(NC(=O)c8sccc8Cl)cn7C)cn6C)cn5C)cn4C)cn3C)cn2C)cc1C(=O)NCCN1CCOCC1 [Polyamide 7]
4.0 (±0.9) × 10^10 M-1

* * *

Quick reference for Binding affinities (M-1), 5′-TACGTG-3′ (equilibrium association constants) among some compounds
Tested on: 5′-ATACGT-3′ sequence within the HRE of the VEGF promoter
Experiment: Quantitative DNase I footprint titration on pGL2-VEGF-Luc PCR product, VEGF HRE
Type: binding
Conditions: mean of three DNase I footprint titration experiments, standard deviations in parentheses; 197 bp PCR product of pGL2-VEGF-Luc

{"COMPOUND": "CN(CCCNC(=O)c1cc(O)cc(C(=O)O)c1)CCCNC(=O)c1cc(NC(=O)c2cc(NC(=O)c3nc(NC(=O)c4cc(NC(=O)[C@H](N)CCNC(=O)c5nc(NC(=O)c6cc(NC(=O)c7cc(NC(=O)c8sccc8Cl)cn7C)cn6C)cn5C)cn4C)cn3C)cn2C)cn1C [Polyamide 12]", "EXPERIMENTAL RESULT": "1.1 (±0.2) × 10^10 M-1"}

Please report the measured Binding affinities (M-1), 5′-TACGTG-3′ (equilibrium association constants) for CN(CCCNC(=O)c1ccccc1)CCCNC(=O)c1cc(NC(=O)c2cc(NC(=O)c3nc(NC(=O)c4cc(NC(=O)[C@H](N)CCNC(=O)c5nc(NC(=O)c6cc(NC(=O)c7cc(NC(=O)c8sccc8Cl)cn7C)cn6C)cn5C)cn4C)cn3C)cn2C)cn1C [Polyamide 9]
1.5 (±0.6) × 10^10 M-1

* * *

System: 5′-ATACGT-3′ sequence within the HRE of the VEGF promoter
Assay: Quantitative DNase I footprint titration on pGL2-VEGF-Luc PCR product, VEGF HRE
Format: binding
Conditions: mean of three DNase I footprint titration experiments, standard deviations in parentheses; 197 bp PCR product of pGL2-VEGF-Luc
Method: Quantitative DNase I footprint titration experiments were used to determine polyamide-binding affinities (Ka) to the 5′-ATACGT-3′ sequence within the HRE of the VEGF promoter. These experiments were performed using the 5′-^32P-labeled 197 bp PCR amplification product of the plasmid pGL2-VEGF-Luc isolated by non-denaturing gel electrophoresis (16, 21). Quantitative DNase I footprint titration experiments were conducted as reported previously (21). […]
Measured Binding affinities (M-1), 5′-TACGTG-3′ (equilibrium association constants) of individual entries

// solved cases for Binding affinities (M-1), 5′-TACGTG-3′ (equilibrium association constants) follow
{"COMPOUND": "CN(C)CCCNC(=O)c1cc(NC(=O)c2cc(NC(=O)c3nc(NC(=O)c4cc(NC(=O)[C@H](N)CCNC(=O)c5nc(NC(=O)c6cc(NC(=O)c7cc(NC(=O)c8sccc8Cl)cn7C)cn6C)cn5C)cn4C)cn3C)cn2C)cn1C [Polyamide 5]", "EXPERIMENTAL RESULT": "6.2 (±1.2) × 10^10 M-1"}
{"COMPOUND": "Cn1cc(NC(=O)c2cc(NC(=O)c3nc(NC(=O)c4cc(NC(=O)[C@H](N)CCNC(=O)c5nc(NC(=O)c6cc(NC(=O)c7cc(NC(=O)c8sccc8Cl)cn7C)cn6C)cn5C)cn4C)cn3C)cn2C)cc1C(=O)NCCCOCCOCCOCCCNC(=O)CCCC[C@@H]1SC[C@@H]2NC(=O)N[C@@H]21 [Polyamide 15]", "EXPERIMENTAL RESULT": "4.4 (±1.7)×10^9 M-1"}
{"COMPOUND": "Cn1cc(NC(=O)c2cc(NC(=O)c3nc(NC(=O)c4cc(NC(=O)[C@H](N)CCNC(=O)c5nc(NC(=O)c6cc(NC(=O)c7cc(NC(=O)c8sccc8Cl)cn7C)cn6C)cn5C)cn4C)cn3C)cn2C)cc1C(=O)NCCCN1CCOCC1 [Polyamide 8]", "EXPERIMENTAL RESULT": "3.8 (±0.5) × 10^10 M-1"}

Shifting focus to the compound that follows.
// fetch Binding affinities (M-1), 5′-TACGTG-3′ (equilibrium association constants) given entry CNC(=O)c1cc(NC(=O)c2cc(NC(=O)c3nc(NC(=O)c4cc(NC(=O)[C@H](N)CCNC(=O)c5nc(NC(=O)c6cc(NC(=O)c7cc(NC(=O)c8sccc8Cl)cn7C)cn6C)cn5C)cn4C)cn3C)cn2C)cn1C [Polyamide 6]
2.5 (±0.3) × 10^10 M-1
